- MEASUREMENT_PROTOCOL: DRUGMATRIX: Phosphodiesterase PDE3 enzyme inhibition (substrate: [3H]cAMP + cAMP)
- Type: tissue-based, Homo sapiens
- CONDITION_DETAILS: platelet; Not Active = under 50% inhibition at 10 µM
VALUE_KIND: Ki

The examples below pair each entry with its known result.
| COMPOUND | Ki |
| --- | --- |
| O=C(O)c1cc(-c2ccc(F)cc2F)ccc1O | Not Active |
| CCN(CC)CCNC(=O)c1ccc(N)cc1 [PROCAINAMIDE] | Not Active |
| NNCCc1ccccc1 | Not Active |
| C[C@]12C=CC(=O)C=C1CC[C@@H]1[C@@H]2C(=O)C[C@@]2(C)[C@H]1CC[C@]2(O)C(=O)CO | Not Active |
| CC1CCC(NC(=O)N(CCCl)N=O)CC1 (stereo not drawn) | Not Active |

input: Provide only the value of recorded Ki for C[C@H]1O[C@H](O[C@H]2[C@H](O)[C@@H](O)[C@@H](O[C@H]3[C@H](O)[C@@H](O)C(O)O[C@@H]3CO)O[C@@H]2CO)[C@H](O)[C@@H](O)[C@@H]1N[C@H]1C=C(CO)[C@@H](O)[C@H](O)[C@H]1O (stereo partly drawn)
output: Not Active

input: Provide only the value of recorded Ki for Cc1cccc(C)c1NC(=O)C1CCCCN1C (stereo not drawn) [MEPIVACAINE]
output: Not Active

input: Provide only the value of recorded Ki for "Cc1cc(O)cc(C)c1Cl"
output: Not Active
